- assayed-target: H^+,K^+-ATPase D137I (Sus scrofa, UniProt P19156, D138I)
- Sequence (P19156 whole entry D138I): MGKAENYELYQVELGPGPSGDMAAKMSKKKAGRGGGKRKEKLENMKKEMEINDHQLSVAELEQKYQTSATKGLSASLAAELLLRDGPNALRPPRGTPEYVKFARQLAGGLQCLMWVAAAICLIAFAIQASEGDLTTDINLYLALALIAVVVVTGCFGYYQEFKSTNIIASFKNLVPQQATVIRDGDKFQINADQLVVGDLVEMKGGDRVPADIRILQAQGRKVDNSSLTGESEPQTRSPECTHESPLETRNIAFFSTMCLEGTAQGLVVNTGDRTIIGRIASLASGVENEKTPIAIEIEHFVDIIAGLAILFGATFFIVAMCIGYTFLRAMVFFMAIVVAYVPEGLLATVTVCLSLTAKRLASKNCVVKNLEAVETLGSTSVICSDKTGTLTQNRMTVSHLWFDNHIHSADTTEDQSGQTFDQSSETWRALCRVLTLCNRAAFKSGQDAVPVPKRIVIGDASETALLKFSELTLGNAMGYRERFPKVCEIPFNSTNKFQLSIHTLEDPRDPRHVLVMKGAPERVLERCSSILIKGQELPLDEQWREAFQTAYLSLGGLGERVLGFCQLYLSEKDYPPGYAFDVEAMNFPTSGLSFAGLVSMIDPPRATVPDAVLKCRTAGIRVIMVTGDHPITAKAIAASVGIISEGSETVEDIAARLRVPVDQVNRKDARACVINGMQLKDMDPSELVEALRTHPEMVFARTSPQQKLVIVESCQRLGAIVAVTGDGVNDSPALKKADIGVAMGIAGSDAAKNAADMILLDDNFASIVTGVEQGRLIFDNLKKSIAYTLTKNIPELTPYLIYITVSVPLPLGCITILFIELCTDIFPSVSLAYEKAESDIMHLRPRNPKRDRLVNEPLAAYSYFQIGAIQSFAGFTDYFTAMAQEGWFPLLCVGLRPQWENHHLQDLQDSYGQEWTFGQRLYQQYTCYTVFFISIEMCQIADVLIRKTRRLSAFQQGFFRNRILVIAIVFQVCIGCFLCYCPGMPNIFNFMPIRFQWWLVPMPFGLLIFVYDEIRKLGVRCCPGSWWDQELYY
- Sequence (P18434 whole entry partner): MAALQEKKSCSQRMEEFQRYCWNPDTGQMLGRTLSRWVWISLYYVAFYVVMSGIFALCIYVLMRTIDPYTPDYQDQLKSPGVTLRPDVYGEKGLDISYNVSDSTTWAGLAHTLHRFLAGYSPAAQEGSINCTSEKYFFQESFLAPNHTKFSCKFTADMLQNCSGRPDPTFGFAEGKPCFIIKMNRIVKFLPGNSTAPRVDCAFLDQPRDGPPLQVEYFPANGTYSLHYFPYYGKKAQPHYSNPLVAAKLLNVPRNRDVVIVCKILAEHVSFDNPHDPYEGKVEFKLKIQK
- assay: ATPase assay, D137I mutant
- details: D137I
reported-metric: -fold increase in K i compared with wild-type (fold)

Consider the worked cases shown below.
molecule: Cc1nc2c3c(ccn2c1C)[C@@H](O)[C@H](O)[C@@H](c1ccccc1)N3 [BYK99]
assayed-target: H^+,K^+-ATPase D137I (Sus scrofa, UniProt P19156, D138I)
reported: 11
--
molecule: N#CCc1cnc2c(OCc3ccccc3)cccn12 [SCH-Me^−]
assayed-target: H^+,K^+-ATPase D137I (Sus scrofa, UniProt P19156, D138I)
reported: 16

(A) Cc1nc2c3c(ccn2c1C)[C@@H](O)[C@H](O)[C@@H](c1ccccc1)N3C [BYK73]
(B) Cc1cn2cccc(OCc3ccccc3)c2n1 [SCH-CN^−]
[in] Of A and B , which one carries the higher reported -fold increase in K i compared with wild-type? In your reply, give the label of the chosen option.
[out] B
(B: 12 fold, A: 6.5 fold)

Source: paper PMC5529566
